Reported Activity by item:
Biological target: Protein cereblon/Glycogen synthase kinase-3 alpha (Homo sapiens, UniProt P49840+Q96SW2)
Sequence (P49840 2-483 limits assumed): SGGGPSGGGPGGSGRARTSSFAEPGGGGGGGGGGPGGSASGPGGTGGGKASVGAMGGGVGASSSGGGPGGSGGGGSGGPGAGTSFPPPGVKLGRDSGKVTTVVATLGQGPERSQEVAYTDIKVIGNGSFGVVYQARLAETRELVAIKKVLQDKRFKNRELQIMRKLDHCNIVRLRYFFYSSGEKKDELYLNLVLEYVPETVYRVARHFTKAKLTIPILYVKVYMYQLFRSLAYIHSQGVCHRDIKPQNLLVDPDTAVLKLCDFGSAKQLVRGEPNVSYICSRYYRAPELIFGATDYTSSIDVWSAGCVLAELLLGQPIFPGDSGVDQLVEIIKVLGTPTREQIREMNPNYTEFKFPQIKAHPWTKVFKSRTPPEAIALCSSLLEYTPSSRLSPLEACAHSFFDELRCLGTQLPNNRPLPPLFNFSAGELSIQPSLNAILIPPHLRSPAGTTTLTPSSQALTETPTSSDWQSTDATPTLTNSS
Sequence (Q96SW2 whole entry partner): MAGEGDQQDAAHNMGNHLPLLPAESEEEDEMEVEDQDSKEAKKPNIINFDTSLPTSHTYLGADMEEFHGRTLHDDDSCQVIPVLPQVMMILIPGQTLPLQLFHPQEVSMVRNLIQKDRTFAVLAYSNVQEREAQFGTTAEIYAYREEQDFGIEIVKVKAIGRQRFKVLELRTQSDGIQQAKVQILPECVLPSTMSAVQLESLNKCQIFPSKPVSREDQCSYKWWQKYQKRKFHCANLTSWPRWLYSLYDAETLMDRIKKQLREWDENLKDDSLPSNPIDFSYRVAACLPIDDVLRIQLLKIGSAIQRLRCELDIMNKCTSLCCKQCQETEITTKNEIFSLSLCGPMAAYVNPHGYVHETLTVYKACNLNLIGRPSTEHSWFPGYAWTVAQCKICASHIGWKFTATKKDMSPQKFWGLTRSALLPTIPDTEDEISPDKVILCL
Assay: Protac activity at CRBN/GSK3alpha in human SH-SY5Y cells assessed as induction of GSK3alpha degradation at 0.1 uM measured after 24 hrs
Format: cell-based
The reply should contain only the number, in %.

These recorded examples may help you get a feel for the data.
>>> observed_result("Nc1ncc(-c2ccc(S(=O)(=O)N3CCN(Cc4cn(CCOCCOCCOCCOCCNc5cccc6c5C(=O)N(C5CCC(=O)NC5=O)C6=O)nn4)CC3)cc2)nc1C(=O)Nc1cccnc1 (stereo unspecified)")
42
>>> observed_result("Nc1ncc(-c2ccc(S(=O)(=O)N3CCN(CCCCc4cn(CCOCCOCCNc5cccc6c5C(=O)N(C5CCC(=O)NC5=O)C6=O)nn4)CC3)cc2)nc1C(=O)Nc1cccnc1 (stereo unspecified)")
70.9
>>> observed_result("Nc1ncc(-c2ccc(S(=O)(=O)N3CCN(Cc4cn(CCOCCOCCOCCOCCOCCOCCNc5cccc6c5C(=O)N(C5CCC(=O)NC5=O)C6=O)nn4)CC3)cc2)nc1C(=O)Nc1cccnc1 (stereo unspecified)")
29.7
>>> observed_result("Nc1ncc(-c2ccc(S(=O)(=O)N3CCN(CCc4cn(CCOCCOCCNc5cccc6c5C(=O)N(C5CCC(=O)NC5=O)C6=O)nn4)CC3)cc2)nc1C(=O)Nc1cccnc1 (stereo unspecified)")
61.1
>>> observed_result("Nc1ncc(-c2ccc(S(=O)(=O)N3CCN(Cc4cn(CCOCCOCCOCCNc5cccc6c5C(=O)N(C5CCC(=O)NC5=O)C6=O)nn4)CC3)cc2)nc1C(=O)Nc1cccnc1 (stereo unspecified)")
45.4

Qu. What value of Activity has been recorded for this entry: Nc1ncc(-c2ccc(S(=O)(=O)N3CCN(Cc4cn(CCOCCOCCNc5cccc6c5C(=O)N(C5CCC(=O)NC5=O)C6=O)nn4)CC3)cc2)nc1C(=O)Nc1cccnc1 (stereo unspecified)
Ans. 46.9
